Assay: Pharmacokinetics of AE-PM components and their phase II metabolites in rat plasma after single oral administration (UHPLC-MS/MS, with and without sulfatase hydrolysis)
Settings: rat, plasma, po, 50.4 g PM/kg, Tmax, different groups (normal, ANIT, CCl4); oral AE-PM
Assay Endpoint: Tmax

Compound	Tmax
O=C1c2cccc(O)c2C(=O)c2c(O)cc(CO)cc21 [Aloe-emodin, aloe-emodin]	< 30 min

# input for lookup
Input: Recall and state the measured Tmax for Cc1cc(O)c2c(c1)C(=O)c1cc(O)cc(O)c1C2=O [Emodin, emodin] .
Output: < 30 min

====

Assay: Pharmacokinetics of AE-PM components and their phase II metabolites in rat plasma after single oral administration (UHPLC-MS/MS, with and without sulfatase hydrolysis)
Conditions: rat, plasma, po, 50 g/kg, CLz/F, CCl4 group rats; oral AE-PM 50 g/kg; plasma; n = 6
Recorded measurements of CL/F, one per entry
API: value field is a number in mL/min/kg; no unit string.

Consider the worked cases shown below.
Smiles Text	CL/F / mL/min/kg
Oc1cc(O)c2c(c1)O[C@H](c1ccc(O)c(O)c1)[C@@H](O)C2	222
OC[C@H]1O[C@@H](Oc2c(O)cc(O)cc2/C=C/c2ccc(O)cc2)[C@H](O)[C@@H](O)[C@@H]1O	2.87

# input for lookup
Input: Recall and state the measured CL/F for `COc1cc(O)c2c(c1)C(=O)c1cc(C)cc(O)c1C2=O` .
Output: 9.27

====

Assay: Pharmacokinetics of AE-PM components and their phase II metabolites in rat plasma after single oral administration (UHPLC-MS/MS, with and without sulfatase hydrolysis)
Conditions: rat, plasma, po, 50 g/kg, CLz/F, CCl4 group rats; oral AE-PM 50 g/kg; plasma; n = 6
Recorded measurements of CL/F, one per entry
API: value field is a number in mL/min/kg; no unit string.

Consider the worked cases shown below.
Compound	Uom	Recorded Value
Cc1cc(O)c2c(c1)C(=O)c1cc(O)cc(O)c1C2=O	mL/min/kg	55.9
Cc1cc(O[C@@H]2O[C@H](CO)[C@@H](O)[C@H](O)[C@H]2O)c2c(c1)C(=O)c1cc(O)cc(O)c1C2=O [E-glu, emodin-8-O-β-D-glucoside]	mL/min/kg	23.5
COc1cc(O)c2c(c1)C(=O)c1cc(C)cc(O[C@@H]3O[C@H](CO)[C@@H](O)[C@H](O)[C@H]3O)c1C2=O [P-glu, physcion-8-O-β-D-glucoside]	mL/min/kg	230

Input: Recall and state the measured CL/F for `O=C1c2cccc(O)c2C(=O)c2c(O)cc(CO)cc21` .
Output: 50.4

====

Recorded measurements of MRT inf, one per entry
Experiment: Pharmacokinetics of AE-PM components and their phase II metabolites in rat plasma after single oral administration (UHPLC-MS/MS, with and without sulfatase hydrolysis)
Conditions: rat, plasma, po, 50 g/kg, MRT (0-∞), CCl4 group rats; oral AE-PM 50 g/kg; plasma; n = 6
API: value field is a number in h; no unit string.

Input: Recall and state the measured MRT inf for `COc1cc(O)c2c(c1)C(=O)c1cc(C)cc(O)c1C2=O` .
Output: 10

====

Assay: Pharmacokinetics of AE-PM components and their phase II metabolites in rat plasma after single oral administration (UHPLC-MS/MS, with and without sulfatase hydrolysis)
Settings: rat, plasma, po, 50 g/kg, t1/2z, Normal group rats; oral AE-PM 50 g/kg; plasma; n = 6
Recorded measurements of half-life, one per entry
API: value field is a number in h; no unit string.

Input: Recall and state the measured half-life for Cc1cc(O[C@@H]2O[C@H](CO)[C@@H](O)[C@H](O)[C@H]2O)c2c(c1)C(=O)c1cc(O)cc(O)c1C2=O [E-glu, emodin-8-O-β-D-glucoside] .
Output: 3.92

Input: Recall and state the measured half-life for `Oc1cc(O)c2c(c1)O[C@H](c1ccc(O)c(O)c1)[C@@H](O)C2` .
Output: 104

Hello, the source for this data is paper PMC8245786, in case you need it.
